Entry source: the supplement of paper PMC10567573

Would you mind telling me the reported protein stability index of each entry?
- assay: protein stability index of a GFP-peptide fusion (GPS, HEK-293T) (PSI 1-6); higher = more stable;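 note: 24-mer peptide tiles fused after GFP, lentivirally expressed, FACS-sorted into six equal bins by GFP/DsRed ratio, decoded by Illumina sequencing, PSI is the read-weighted mean bin number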
- testContext: treatment: DMSO; c terminus: a fixed tail appended
Please reply with the number alone, leaving off any unit.

# protein stability index (sequence: GAQELLEFTIRDLQRLGELQSELA [INTS4] ) is 2.54

The reported protein stability index of the sequence ASKEEKEDWLSHALSRKKSQGLAR [FBF1] was 4.57

Measured protein stability index of PVANSGTKPKTTAIQGISEKEKAE [DLC1] : 5.51

protein stability index reading for EHICVNNGNSYICKCSEGFVLAED [MATN2] : 4.61

For reference, reported protein stability index for LGYFIRSWRTLAILVNLQGTVVFL [SLC22A15] stands at 2.71

What the record says about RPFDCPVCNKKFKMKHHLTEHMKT [ZBTB22] : protein stability index is 2.77

Documented protein stability index of HVTNAMVLVNVLQAIYVIDFFWNE [DHCR7] : 3.08

Data point: LMNDVIDTSGFPDLSDNRNEDPLV [FBXO33] ; protein stability index = 4.85

# sequence PDGGRADEWACELRLFGRVLERAA [P3H4] ; its protein stability index = 2.46

The sequence identified as SYATEADIISTVEFNHTGELLATG [PPP2R2B] registered its protein stability index at 3.9

In plain terms, HVLLEGEGLGQSLGNFKDDLLNVC [TRIM29] has a documented protein stability index of 3.06

The value of protein stability index measured for the sequence DNAEAAFSDDEEDLNSKGKKREFR [INTS3] turned out to be 5.51

Entry LGQNDTGFSCDGTANTFRVMFKEP [BTBD1] — recorded protein stability index = 3.36

Entry NAKAHCGATALHFAAEAGHIDIVK [FEM1B] — recorded protein stability index = 2.59

Looking up MERARDRLHLRRTTEQHVPEVEVQ [SNURF] , I found its protein stability index recorded as 4.77

What the record says about QEVPHEGPMCDLLWSDPDDRGGWG [PPP2CA] : protein stability index is 4.39

protein stability index reading for TQAHIQECKHPSVFQHGDNSFRLL [MCOLN1] : 2.78

Recorded result, PGLPGSTGNPKSEEPEVPDQEGLQ [SPNS1] , protein stability index: 5.39

Sure, the documented protein stability index for SSCNGPGQTTGHPYYLRSFLVVLK [FAN1] is 2.21

What the record says about LEAPEDIGSTSESKDWEEVVVESM [MIA2] : protein stability index is 5.4

The reported protein stability index of the sequence SVSRPEGRSWPSAPDDSKAQAHRI [PDLIM4] was 4.76

Lab note: measured protein stability index of LGVIQRDLAKTGCVDLTITNLLEG [AUP1] was 2.52

protein stability index reported for this sequence LRGKSIKRAPGEETEKEEEEEDRE [NEUROD6] : 5.66

Item: SFQLFVEGYKDADYWLRRFEAEPL [PI4K2A] | protein stability index: 1.92

Briefly, protein stability index measured for WESRTGDQYSYSSLVMGSQTESAL [LCOR] : 3.44

protein stability index reading for TSSSSSSSRQTRPILKEQSSSSFS [KRT16] : 4.66

Entry SLCYLQLTRQLVSCSSDGGIAVWN [WDFY1] — recorded protein stability index = 2.87

----------
- assay: protein stability index of a GFP-peptide fusion (GPS, HEK-293T) (PSI 1-6); higher = more stable
- testContext: treatment: DMSO; c terminus: a fixed tail appended
experimentalEndpoint: protein stability index
Lab note: jot the number down without any unit.

Briefly, protein stability index measured for GEKSENNSSNSDIVHVEKEEVPEG [BCL2L13] : 5.8

// protein stability index lookup, sequence = DSYSSSRSDLYSSGRDRVGRQERG [RBMX] , result: 4.72

protein stability index recorded for this sequence, TLTKQDTMLKAMFSGRMEVLTDSE [KCTD10] , is 4.09

Entry DPTWIESPKTNGHIENGPFSLEQQ [SRPK2] — recorded protein stability index = 4.78

The recorded protein stability index for entry RRMFSSLFQFSNCSQGQQLATFSS [CCDC3] equals 2.31

Looking up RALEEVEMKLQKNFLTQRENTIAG [C10orf62] , I found its protein stability index recorded as 3.48

Form: sequence = VGESVEEAFYYIHNLVVACEIQVR [ADD1] ; protein stability index = 2.79

----------
- assay: protein stability index of a GFP-peptide fusion (GPS, HEK-293T) (PSI 1-6); higher = more stable
- testContext: treatment: DMSO; c terminus: a fixed tail appended
Binary classification by protein stability index, with 3 as an inclusive lower bound for YES; all other cases are NO.

INPUT: Confirm if protein stability index reported for the sequence LRKKKTTKLRLERVKFRRQEANAR [NEUROD6] is 3 or above.
OUTPUT: YES

INPUT: Decide: protein stability index of CEEKAKKNANRPLLDEIVPVYRRD [ACBD3] >= 3?
OUTPUT: YES

INPUT: Assess whether reported protein stability index for KEDLIIPHHHSFYDFIVTKARGKS [FAM50A] sits at 3 or higher.
OUTPUT: YES

INPUT: Does protein stability index meet or surpass 3 for FSLVLVLDLSKPNDLWPTMENLLQ [DYNC2LI1] ?
OUTPUT: NO

INPUT: Does protein stability index meet or surpass 3 for CSSFMAPPVTDLGELRRRPGDMKT [CPOX] ?
OUTPUT: YES

INPUT: Entry VALPTEAEFQLVRDVVLCSLLNFL [TENT5C] : is its protein stability index no less than 3?
OUTPUT: NO

INPUT: Form field: protein stability index at least 3? Entry: HSKLTDREKTNICYLSFPDSNSGC [DENND6A]
OUTPUT: YES

INPUT: Confirm if protein stability index reported for the sequence EADINGLRRVLDELTLSKTDLEMQ [KRT13] is 3 or above.
OUTPUT: YES

INPUT: Hi, just wondering whether QLMTSQFISVFSNLLESKADGIEV [ZER1] shows protein stability index of 3 or higher.
OUTPUT: NO

INPUT: Would you say RPGQAPIGNPPVGPIGGMMPPQPG [ZNF207] shows protein stability index at minimum 3?
OUTPUT: YES

INPUT: Hi team, for PRNKTENGLTPKKKIQVNSKPSIQ [ATF6] , is the recorded protein stability index at or above 3?
OUTPUT: YES

INPUT: State whether the measured protein stability index reaches 3, counting equality as reaching it, for DSGGSDVDLDPTDGKLFPSDGFRD [ELF3]
OUTPUT: YES

INPUT: Assess whether reported protein stability index for EEDDDDDDDDNLPQLKKESELPFV [ANKRD40] sits at 3 or higher.
OUTPUT: YES

INPUT: Exam item: decide whether the reported protein stability index for CDPGTDPCPEDASTPRPPEASSSP [TLE6] is at least 3.
OUTPUT: YES

INPUT: API: above_or_equal(metric=protein stability index, cutoff=3) for item MSWEKEEGKSRHVDFQCVKSKSIT [BTBD10]
OUTPUT: YES

INPUT: Textbook exercise: given the entry VHRLDLILCNKTAYQEVFKPENIS [SMG5] , state whether its protein stability index is greater than or equal to 3.
OUTPUT: NO

INPUT: Evaluate SLGYKEIRKGESRSEALAVDGAGK [CHGA] : protein stability index at minimum 3?
OUTPUT: YES

INPUT: Is the recorded value of protein stability index equal to or greater than 3 for this sequence? MEAMAASTSLPDPGDFDRNVPRIC [VDR]
OUTPUT: YES

INPUT: # check: protein stability index of KNEPYLEAACNDVDRWPAPVPGKT [DENND6A] is greater than or equal to 3
OUTPUT: YES

INPUT: Is reported protein stability index greater than or equal to 3 here: CKSGAAAKGGFSGCSAVLSGGSSS [KRT71]
OUTPUT: YES

INPUT: Please tell me: is the sequence IPISLETQAHIQECKHPSVFQHGD [MCOLN1] at or over 3 in terms of protein stability index?
OUTPUT: YES

INPUT: State whether the measured protein stability index reaches 3, counting equality as reaching it, for IQKRNQRQSGDRRQLPPPPTPANE [WAS]
OUTPUT: YES

INPUT: Given the entry KVIYDFIEKTGGVEAVKNELRRQA [WASL] , answer whether its protein stability index meets or surpasses 3.
OUTPUT: NO

INPUT: Is it the case that IEDLRAQIFANTVDNARIVLQIDN [KRT18] has protein stability index reaching or exceeding 3?
OUTPUT: NO

INPUT: Would you say GQSLLKDEALAIAALELLPRELFP [PRAME] shows protein stability index at minimum 3?
OUTPUT: NO

INPUT: protein stability index >= 3 for LREIRMLKQLKHPNLVNLIEVFRR [CDKL4] ?
OUTPUT: NO

INPUT: # bool: protein stability index of PEQALDTPGDCPPGRRDEDAGEGI [TMEM175] >= 3
OUTPUT: YES

INPUT: Threshold query (protein stability index >= 3) on HYAFRIFDFDDDGTLNREDLSRLV [CIB1]
OUTPUT: NO

INPUT: In plain terms: is recorded protein stability index at least 3 for FSSQKLKCLSMFPHYICTLKQPHL [PNLIPRP1] ?
OUTPUT: NO

INPUT: Please indicate if the recorded protein stability index for LSQPTTNLVAGCLQLNARSFMMGQ [NEUROD6] meets or exceeds 3.
OUTPUT: NO

INPUT: hey, is protein stability index for this one >= 3? EIIELLILSGARVNAKDNMWLTPL [ANKRD44]
OUTPUT: YES

INPUT: Threshold query (protein stability index >= 3) on DSSEKELEPEAAEEALENGPKESL [ACBD3]
OUTPUT: YES

INPUT: Could you tell me if the measured protein stability index of KIKDEVHPEVKCVGSVALTALVTV [C8orf76] reaches 3 or more?
OUTPUT: NO

INPUT: Could you please find out whether EAECEKSSATTYFWYREALDISDS [SLC6A17] has protein stability index that meets 3 or exceeds it?
OUTPUT: YES

INPUT: Entry ELLWKLQTGDPTSPIKLSPTSPVY [MTUS2] : is its protein stability index no less than 3?
OUTPUT: NO

INPUT: Reported protein stability index at or above 3? GKDQGINIRQKVKELVEFAQDDDR [CLINT1]
OUTPUT: YES

INPUT: // inclusive: protein stability index at least 3? input: PTIDTGYDSQPQDVLGIRQLERPL [TRAF3IP2]
OUTPUT: YES

INPUT: Kindly determine if protein stability index recorded for VGSVHVDSGASAITRESHTHRDRP [CSNK1G1] is above or exactly 3.
OUTPUT: YES

INPUT: Item LPEWISCLIQKAQWTVGKLNCPFC [RNF180] with protein stability index of 3 or above?
OUTPUT: NO

INPUT: Item GVRIVSRGRTQLFSLNPRSGSLIT [PCDHGA10] with protein stability index of 3 or above?
OUTPUT: NO

INPUT: I'd appreciate it if you could say whether CKAFFKRSIQGHNDYICPATNQCT [ESR2] has protein stability index at least equal to 3.
OUTPUT: NO

INPUT: Reported protein stability index reaches at least 3 for VVETVFFLTSRTRALLRRFPRMLL [ZSWIM9] ?
OUTPUT: NO

INPUT: Decide: protein stability index of INLATMNSCINPIALYFVSKKFKN [EDNRA] >= 3?
OUTPUT: NO

INPUT: hey, is protein stability index for this one >= 3? IGGVATVVCQPNEFIMPDSAVVGD [SEPHS2]
OUTPUT: YES

INPUT: Given the entry GVEIDEINVYGNTALHIACYNGQD [ANKRD44] , answer whether its protein stability index meets or surpasses 3.
OUTPUT: YES

INPUT: Assess whether reported protein stability index for WTLYKILDSCKQLTLAQGAGEEDP [SMG5] sits at 3 or higher.
OUTPUT: NO

INPUT: Quick check: does ATALAPLQTDHYAALLGSNSESWG [SPSB2] have protein stability index greater than or equal to 3?
OUTPUT: YES
